The measurements presented in this section are drawn from ChEMBL document CHEMBL1153579.

Target Of Assay: Amine oxidase [flavin-containing] B (Homo sapiens)
Sequence (P27338 whole entry): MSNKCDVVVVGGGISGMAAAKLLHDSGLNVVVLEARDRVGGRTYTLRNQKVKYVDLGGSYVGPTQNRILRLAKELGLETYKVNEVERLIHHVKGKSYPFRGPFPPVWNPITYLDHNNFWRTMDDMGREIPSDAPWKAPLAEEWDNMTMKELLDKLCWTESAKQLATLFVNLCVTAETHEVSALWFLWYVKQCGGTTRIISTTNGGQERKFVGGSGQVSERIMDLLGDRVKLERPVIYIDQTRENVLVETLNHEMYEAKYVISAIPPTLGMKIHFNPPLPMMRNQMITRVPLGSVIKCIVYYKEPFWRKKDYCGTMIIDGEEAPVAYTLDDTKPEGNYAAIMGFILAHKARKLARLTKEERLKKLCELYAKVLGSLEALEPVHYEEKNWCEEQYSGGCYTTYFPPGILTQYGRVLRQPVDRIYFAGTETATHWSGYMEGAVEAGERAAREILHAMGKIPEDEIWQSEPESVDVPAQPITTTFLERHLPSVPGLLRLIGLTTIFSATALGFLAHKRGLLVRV
pIC50: −log10 of the molar value.
Label TRUE when pIC50 is at or above 5; otherwise label FALSE.

Field: example entries. Status: answers known.
> print(dat)
                                   compound  class
1  COc1ccc(C2=NN(C(C)=O)C(c3ccccc3C)C2)c(OC)c1 (stereo unspecified)  FALSE
2  Oc1ccc(/C=C\c2cc(O)cc(O)c2)cc1 [CIS-RESVERATROL]  FALSE
3    NC1CC1(F)c1ccccc1 (stereo unspecified)  FALSE
4  CCOC(=O)/C=C/c1ccc(O)c(OC)c1 [ETHYL FERULATE]   TRUE

// inclusive: pIC50 at least 5? input: CC(=O)NC[C@H]1CN(c2ccc(N3CCOCC3)c(F)c2)C(=O)O1
FALSE
